target.under.test: T1, In house human CD8A-Fc (human, UniProt P01732 22-182, limits assumed)
T1 construct: Captured on goat anti-human Fc on a ProteOn GLC chip; also called hCD8A-Fc; recombinant human CD8 alpha; not shown: linker with flag (and polyhistidine) tag and Fc of human IgG1
assay.summary: SPR (ProteOn), captured hCD8A-Fc
Entries annotated with measured log10 koff
Lab note - koff converted to log10 from values in s⁻¹.

Previously resolved entries follow.
P282DR9P1359_B2 (designed binder, FN3 domain) LPAPKNLVVSRVTEDSARLSWTAPDAAFDSFWIAYTEWPIPYEEAGQEGEAIVLTVPGSERSYDLTGLKPGTEYWVSIYGVKGGPNSQPLSAIFTT; -3.20
P282AR9P1356_A6 (designed binder, FN3 domain) LPAPKNLVVSRVTEDSARLSWSKTDSSFDSFLIQYQESEKVGEAIVLTVPGSERSYDLTGLKPGTEYTVSIYGVDVVYIEGNPVFSNPLSAIFTT; -4.01
P282ER9P1360_A9 (designed binder, FN3 domain) LPAPKNLVVSRVTEDSARLSWTAPDAAFDSFGILYYEPVDSGEAITLPIPGSERSYDLTGLKPGTEYWVVITGVKGGAPSTPLGAIFTT; -3.88
P282DR9P1359_E6 (designed binder, FN3 domain) LPAPKNLVVSRVTEDSARLSWTAPDAAFDSFWIAYPEWPVQGEAIVLTVPGSERSYDLTGLKPGTEYFVVIQGVKGGTPSWPLSAIFTT; -2.77
P282ER9P1360_G7 (designed binder, FN3 domain) LPAPKNLVVSRVTEDSARLSWTAPDAAFDSFGILYYEPVDSGEAITLPVPGSERSYDLTGLKPGTEYWVVITGVKGGAPSTPLGAILTT; -3.66
P282FR9P1361_F2 (designed binder, FN3 domain) LPAPKNLVVSRVTEDSARLSWTAPDAAFDSFDIWYAEYGYPGEAIVLTVPGSERSYDLTGLKPGTEYDVAISGIKGGPRSYPLSAIFTT; -2.30

Entry P282CR9P1358_C5 (designed binder, FN3 domain) LPAPKNLVVSRVTEDSARLSWTAPDAAFDSFLIAYPEWPDSGEAIVLTVPGSERSYDLTGLKPGTEYAVFIWGVKGGPLSHPLSAIFTT ; log10 koff = -3.00

Entry P283AR9P1362_F12 (designed binder, FN3 domain) LPAPKNLVVSRVTEDSARLSWARNITSFDSFLIQYQESEKVGEAIVLTVPGSERSYDLTGLKPGTEYTVSIYGVDVKYDIDSRPISSNPLSAIFTT ; log10 koff = -4.14

Entry P282BR9P1357_C4 (designed binder, FN3 domain) LPAPNNLVVSRVTEDSARLSWPFVSQNKPHFDSFLIQYQESEKVGEAIVLTVPGSERSYDLTGLKPGTEYTVSIYGVDVKWEGNRPVASNPLSAIFTT ; log10 koff = -3.90

Entry P282FR9P1361_E12 (designed binder, FN3 domain) LPAPKNLVVSRVTEDSARLSWTAPDAAFDSLGITYWESPYAGEAIVLTVPGSERSYDLTGLKPGTEYGVFILGVKGGYPSAPLSAIFTT ; log10 koff = -2.96

Entry P283BR9P1363_A10 (designed binder, FN3 domain) LPAPKNLVVSRVTEDSARLSWQRADDILPYFDSFLIQYQESEKVGEAIVLTVPGSERSYDLTGLKPGTEYTVSIYGVDVKYDIDSRPISSNPLSAIFTT ; log10 koff = -3.44

Cited source for all entries: patent US20210032312A1
